Assay: self-splicing fitness, log relative to wild type (ln ratio); higher = more splicing; Tetrahymena group I intron in knt gene, E. coli kanamycin selection, DiMSum; sequences stand for … in CUCUCU…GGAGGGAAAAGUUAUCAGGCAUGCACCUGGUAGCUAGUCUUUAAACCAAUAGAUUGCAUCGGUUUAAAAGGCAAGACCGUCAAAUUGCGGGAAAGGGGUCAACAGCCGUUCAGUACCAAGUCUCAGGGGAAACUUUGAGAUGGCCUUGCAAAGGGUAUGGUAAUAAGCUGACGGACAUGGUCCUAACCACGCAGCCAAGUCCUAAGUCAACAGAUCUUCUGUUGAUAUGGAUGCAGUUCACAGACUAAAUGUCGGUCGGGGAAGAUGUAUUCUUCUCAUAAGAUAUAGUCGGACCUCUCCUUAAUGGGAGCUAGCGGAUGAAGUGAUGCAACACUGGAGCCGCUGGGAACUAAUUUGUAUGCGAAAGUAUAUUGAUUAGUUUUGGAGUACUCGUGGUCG;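 note: selection with 25 µg/mL kanamycin versus none on LB agar overnight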
Settings: 30 °C
# binarize self-splicing fitness (ln): threshold -3 inclusive, high side Satisfied, low side Not satisfied

// known answers, use as guide
GAGAAGCAAUAUUACGCAGA : Satisfied
GCGUAGCAAUAUUACGAACG : Satisfied
CGCAAGCAAUAUUACGCAUA : Not satisfied
CCAUAGCAAUAUUACGUUGG : Not satisfied
CUGUAGCAAUAUUACGUCAC : Not satisfied
GCACAGCAAUAUUACGUGUU : Not satisfied
CUAAAGCAAUAUUACGGUUU : Not satisfied
UCUGAGCAAUAUUACGCGGU : Satisfied
AUCAAGCAAUAUUACGUUGC : Not satisfied
GAACAGCAAUAUUACGCUUU : Satisfied

Could you please find out whether ACCCAGCAAUAUUACGGCUC has self-splicing fitness (ln) that meets -3 or exceeds it?
Satisfied

Assess whether reported self-splicing fitness (ln) for GUUCAGCAAUAUUACGGGAA sits at -3 or higher.
Satisfied

====

Experiment: self-splicing fitness, log relative to wild type (ln ratio); higher = more splicing; Tetrahymena group I intron in knt gene, E. coli kanamycin selection, DiMSum; sequences stand for … in CUCUCU…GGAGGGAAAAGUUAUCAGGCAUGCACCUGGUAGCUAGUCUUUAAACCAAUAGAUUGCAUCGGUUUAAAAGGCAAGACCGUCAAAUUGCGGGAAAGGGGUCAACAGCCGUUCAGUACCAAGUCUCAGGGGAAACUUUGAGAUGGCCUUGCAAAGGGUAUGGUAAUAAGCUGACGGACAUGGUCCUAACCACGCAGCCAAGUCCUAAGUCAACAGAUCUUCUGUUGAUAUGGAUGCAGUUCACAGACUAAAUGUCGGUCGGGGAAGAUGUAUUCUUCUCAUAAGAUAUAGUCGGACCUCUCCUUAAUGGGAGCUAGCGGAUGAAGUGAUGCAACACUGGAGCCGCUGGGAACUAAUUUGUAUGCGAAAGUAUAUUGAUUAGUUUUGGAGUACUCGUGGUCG
Settings: 37 °C
readout.label: self-splicing fitness (ln)
Just the number, please, no unit attached.

GUGAAGCAAUAUUACGAGGU : -1.36
AUCGAGCAAUAUUACGUUAU : -2.59
GGGCAGCAAUAUUACGAUUA : -1.63

Give recorded self-splicing fitness (ln). CACAAGCAAUAUUACGUGGU
-2.66
